Biological target: human CD33 P19K (human, UniProt P20138 18-364)
Sequence (P20138 18-364 P19K limits assumed): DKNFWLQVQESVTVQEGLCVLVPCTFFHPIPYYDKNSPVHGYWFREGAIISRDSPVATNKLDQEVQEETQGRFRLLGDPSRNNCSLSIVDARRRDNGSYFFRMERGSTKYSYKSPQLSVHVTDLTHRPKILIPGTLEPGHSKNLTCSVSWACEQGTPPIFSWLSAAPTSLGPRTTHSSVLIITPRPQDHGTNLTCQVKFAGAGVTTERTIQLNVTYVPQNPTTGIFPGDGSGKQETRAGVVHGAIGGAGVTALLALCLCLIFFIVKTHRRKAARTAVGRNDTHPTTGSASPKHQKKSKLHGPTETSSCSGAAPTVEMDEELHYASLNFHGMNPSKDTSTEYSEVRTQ
Assay: flow cytometry, mutant on cells, IgG
Would you kindly list Mean % WT Binding for each of these binders?
Reply numerically in % WT binding, unit not repeated.

Input Refmab #1 (antibody, human IgG1, V domains shown, Tested in IgG format; human IgG1 (Absolute Antibody hP67.6, Cat. No. Ab00283-10.0); also called hP67.6) VH: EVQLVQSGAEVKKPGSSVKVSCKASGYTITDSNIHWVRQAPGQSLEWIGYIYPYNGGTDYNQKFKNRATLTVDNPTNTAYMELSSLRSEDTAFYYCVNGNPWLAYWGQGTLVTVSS VL: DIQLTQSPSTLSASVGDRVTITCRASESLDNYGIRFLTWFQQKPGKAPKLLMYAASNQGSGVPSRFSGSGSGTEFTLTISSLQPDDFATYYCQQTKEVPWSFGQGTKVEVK . Output Mean % WT Binding: 5.5

Input Refmab #4 (antibody, human IgG1, V domains shown, Tested in IgG format; human IgG1 Fc silent (PG-LALA)) VH: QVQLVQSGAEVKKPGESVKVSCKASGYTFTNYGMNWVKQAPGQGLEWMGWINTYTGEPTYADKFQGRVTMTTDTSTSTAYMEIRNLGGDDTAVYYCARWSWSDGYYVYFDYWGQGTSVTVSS VL: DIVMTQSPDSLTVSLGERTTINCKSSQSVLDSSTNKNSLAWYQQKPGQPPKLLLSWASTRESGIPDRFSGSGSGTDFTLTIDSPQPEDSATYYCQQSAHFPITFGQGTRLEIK . Output Mean % WT Binding: 92

Input Refmab #2 (antibody, human IgG1, V domains shown, Tested in IgG format; human IgG1 Fc silent (PG-LALA)) VH: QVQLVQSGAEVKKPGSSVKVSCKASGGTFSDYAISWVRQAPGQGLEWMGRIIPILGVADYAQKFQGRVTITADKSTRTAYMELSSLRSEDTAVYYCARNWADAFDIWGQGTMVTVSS VL: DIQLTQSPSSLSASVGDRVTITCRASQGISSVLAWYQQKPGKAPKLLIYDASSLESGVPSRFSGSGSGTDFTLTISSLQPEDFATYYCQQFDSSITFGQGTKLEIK . Output Mean % WT Binding: 115

Input Refmab #3 (antibody, human IgG1, V domains shown, Tested in IgG format; human IgG1 Fc silent (PG-LALA)) VH: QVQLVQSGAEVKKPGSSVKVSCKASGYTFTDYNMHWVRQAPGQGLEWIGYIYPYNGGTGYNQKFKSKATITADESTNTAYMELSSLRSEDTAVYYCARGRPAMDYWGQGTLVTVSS VL: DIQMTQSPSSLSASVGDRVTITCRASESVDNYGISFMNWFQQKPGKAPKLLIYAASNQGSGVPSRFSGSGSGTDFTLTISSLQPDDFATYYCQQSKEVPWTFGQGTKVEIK . Output Mean % WT Binding: 1.8
